assay: Plasma concentration after 0.5 hr at a dose of 100 mg/kg when administered perorally; details: po

- smiles.representation: "N[C@](CC1c2ccccc2Oc2ccccc21)(C(=O)O)[C@H]1C[C@@H]1C(=O)O"
  concentration at 0.5 h (ng/mL): 197

----------
test: in vivo; conditions: brain, iv, 10 mg/kg
Description: Brain concentration after 1 hr at a dose of 10 mg/kg when administered intravenously
quantity.name: concentration at 1 h (ng/g)

- smiles.representation: "N[C@](CC1c2ccccc2Oc2ccccc21)(C(=O)O)[C@H]1C[C@@H]1C(=O)O"
  result: 188

----------
test system: Rattus norvegicus; assay: Area under curve was evaluated in rat brain when administered perorally at a dose of 10 mg/kg for 4 or 6 hours; assay type: ADME, organism-based; set-up: dose 10 mg/kg, route oral; settings: in vivo, po
quantity.name: AUC (ng·h/mL)

- smiles.representation: "N[C@](CC1c2ccccc2Oc2ccccc21)(C(=O)O)[C@H]1C[C@@H]1C(=O)O"
  system.under.test: "Rattus norvegicus"
  result: 26.4

----------
assay: Binding affinity for Group II Metabotropic glutamate receptor was measured using [3H]glutamate in rat forebrain membranes; type: cell membranes, Membrane
pIC50: −log10 of the molar value.
quantity.name: pIC50

- molecule: "N[C@@](CCc1c(F)c(F)c(F)c(F)c1F)(C(=O)O)C1C[C@@H]1C(=O)O (stereo not given in full)"
  comparator: "="
  result: 6.43
- molecule: "N[C@@](CCc1ccc(Cl)c(Cl)c1)(C(=O)O)C1C[C@@H]1C(=O)O (stereo not given in full)"
  comparator: "="
  result: 7.17
- molecule: "COc1cc(CC[C@](N)(C(=O)O)C2C[C@@H]2C(=O)O)cc(OC)c1 (stereo not given in full)"
  comparator: "="
  result: 6.96
- molecule: "N[C@@](CCc1cc(F)ccc1F)(C(=O)O)C1C[C@@H]1C(=O)O (stereo not given in full)"
  comparator: "="
  result: 6.54
- molecule: "NC(CCc1cccc(C(=O)O)c1)(C(=O)O)[C@H]1C[C@@H]1C(=O)O (stereo not given in full)"
  comparator: "="
  result: 7.11
- molecule: "N[C@@](CCc1ccc(Cl)cc1)(C(=O)O)C1C[C@@H]1C(=O)O (stereo not given in full)"
  comparator: "="
  result: 6.39
- molecule: "CS(=O)(=O)c1cccc(CC[C@](N)(C(=O)O)C2C[C@@H]2C(=O)O)c1 (stereo not given in full)"
  comparator: "="
  result: 6.96
- molecule: "N[C@@](CCc1cccc(C2CCCC2)c1)(C(=O)O)C1C[C@@H]1C(=O)O (stereo not given in full)"
  comparator: "<"
  result: 5.00
- molecule: "N[C@@](CCc1cccc(F)c1F)(C(=O)O)C1C[C@@H]1C(=O)O (stereo not given in full)"
  comparator: "="
  result: 6.89
- molecule: "N[C@](CC1c2ccccc2Oc2ccccc21)(C(=O)O)[C@H]1C[C@@H]1C(=O)O"
  comparator: "="
  result: 8.54
- molecule: "N[C@@](CCc1ccc(F)c(F)c1)(C(=O)O)C1C[C@@H]1C(=O)O (stereo not given in full)"
  comparator: "="
  result: 7.47
- molecule: "N[C@@](CCc1c(Cl)cccc1Cl)(C(=O)O)C1C[C@@H]1C(=O)O (stereo not given in full)"
  comparator: "="
  result: 6.15
- molecule: "Cc1ccc(CC[C@](N)(C(=O)O)C2C[C@@H]2C(=O)O)cc1 (stereo not given in full)"
  comparator: "="
  result: 6.23
- molecule: "N[C@](CC1c2ccccc2Oc2ccccc21)(C(=O)O)C1C[C@H]1C(=O)O (stereo in doubt; 174)"
  comparator: "="
  result: 5.38
- molecule: "COc1ccccc1CC[C@](N)(C(=O)O)C1C[C@@H]1C(=O)O (stereo not given in full)"
  comparator: "="
  result: 6.77
- molecule: "N[C@@](CCc1cc(F)cc(F)c1)(C(=O)O)C1C[C@@H]1C(=O)O (stereo not given in full)"
  comparator: "="
  result: 7.68
- molecule: "N[C@@](CCc1cccc(Oc2ccccc2)c1)(C(=O)O)C1C[C@@H]1C(=O)O (stereo not given in full)"
  comparator: "="
  result: 6.66
- molecule: "N[C@@](CCc1ccc(Cl)cc1Cl)(C(=O)O)C1C[C@@H]1C(=O)O (stereo not given in full)"
  comparator: "="
  result: 6.66
- molecule: "Cc1cccc(CC[C@](N)(C(=O)O)C2C[C@@H]2C(=O)O)c1 (stereo in doubt; 180)"
  comparator: "="
  result: 7.92
- molecule: "N[C@@](CCc1cccc(-c2ccccc2)c1)(C(=O)O)C1C[C@@H]1C(=O)O (stereo not given in full)"
  comparator: "="
  result: 6.29

----------
test: Brain concentration after 2 hr at a dose of 10 mg/kg when administered intravenously; conditions: iv

- smiles.representation: "N[C@](CC1c2ccccc2Oc2ccccc21)(C(=O)O)[C@H]1C[C@@H]1C(=O)O"
  value.unit: "ng/g"
  concentration at 2 h: 177

----------
test system: Rattus norvegicus; test: Area under curve was evaluated in rat brain when administered intraperitoneally at a dose of 10 mg/kg for infinite hours; type: ADME, organism-based; set-up: time infinity, dose 10 mg/kg, route intraperitoneal; conditions: in vivo, ip

- smiles.representation: "N[C@](CC1c2ccccc2Oc2ccccc21)(C(=O)O)[C@H]1C[C@@H]1C(=O)O"
  system.under.test: "Rattus norvegicus"
  value.unit: "ng·h/mL"
  AUC: 1790

----------
Known IC50 of a selection of compounds
molecular target: Metabotropic glutamate receptor 3 (Homo sapiens); assay: Effect on 1S,3R-ACPD-induced inhibition of forskolin stimulated cyclic-AMP in RGT cells expressing human Metabotropic glutamate receptor 3; assay type: functional, cell-based
Sequence (Q14832 whole entry): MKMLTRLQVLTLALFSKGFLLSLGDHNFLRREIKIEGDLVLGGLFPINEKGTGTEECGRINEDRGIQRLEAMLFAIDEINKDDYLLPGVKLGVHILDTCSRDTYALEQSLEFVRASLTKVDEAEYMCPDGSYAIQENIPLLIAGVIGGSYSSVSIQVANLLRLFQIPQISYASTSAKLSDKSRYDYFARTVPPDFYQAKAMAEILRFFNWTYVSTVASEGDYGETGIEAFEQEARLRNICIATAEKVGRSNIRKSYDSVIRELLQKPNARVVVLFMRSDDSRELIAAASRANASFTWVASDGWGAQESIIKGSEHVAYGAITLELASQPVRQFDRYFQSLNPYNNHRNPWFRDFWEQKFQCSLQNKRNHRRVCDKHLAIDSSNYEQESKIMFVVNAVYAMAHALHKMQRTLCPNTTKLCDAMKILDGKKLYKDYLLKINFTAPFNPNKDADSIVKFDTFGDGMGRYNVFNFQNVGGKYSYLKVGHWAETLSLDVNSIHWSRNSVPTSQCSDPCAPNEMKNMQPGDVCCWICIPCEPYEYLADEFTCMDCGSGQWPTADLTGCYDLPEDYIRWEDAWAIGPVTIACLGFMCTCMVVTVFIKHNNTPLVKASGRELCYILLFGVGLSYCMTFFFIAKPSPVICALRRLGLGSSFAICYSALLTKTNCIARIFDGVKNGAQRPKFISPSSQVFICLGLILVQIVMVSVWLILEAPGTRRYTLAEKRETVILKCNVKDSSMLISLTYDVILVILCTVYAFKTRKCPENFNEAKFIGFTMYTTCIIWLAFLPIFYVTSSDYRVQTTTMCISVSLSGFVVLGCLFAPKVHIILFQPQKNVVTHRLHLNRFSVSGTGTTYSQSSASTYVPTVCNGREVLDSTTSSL
quantity.name: IC50 (nM)

- compound: "N[C@](CC(c1ccccc1)c1ccccc1)(C(=O)O)[C@H]1C[C@@H]1C(=O)O"
  quantity.name: "IC50"
  result: 170
- compound: "NC(CCc1cccc(C(=O)O)c1)(C(=O)O)[C@H]1C[C@@H]1C(=O)O (some centres undefined)"
  quantity.name: "IC50"
  result: 80
- compound: "N[C@@](CCc1cccc(C(F)(F)F)c1)(C(=O)O)C1C[C@@H]1C(=O)O (some centres undefined)"
  quantity.name: "IC50"
  result: 420
- compound: "N[C@@](CCc1cccc(O)c1)(C(=O)O)C1C[C@@H]1C(=O)O (some centres undefined)"
  quantity.name: "IC50"
  result: 260
- compound: "N[C@@](CCc1cccc(Cl)c1)(C(=O)O)C1C[C@@H]1C(=O)O (some centres undefined)"
  quantity.name: "IC50"
  result: 180
- compound: "Nc1cccc(CC[C@](N)(C(=O)O)C2C[C@@H]2C(=O)O)c1 (some centres undefined)"
  quantity.name: "IC50"
  result: 200
- compound: "COc1cccc(CC[C@](N)(C(=O)O)C2C[C@@H]2C(=O)O)c1 (some centres undefined)"
  quantity.name: "IC50"
  result: 160
- compound: "N[C@@](CCc1ccc(F)cc1)(C(=O)O)C1C[C@@H]1C(=O)O (some centres undefined)"
  quantity.name: "IC50"
  result: 210
- compound: "CS(=O)(=O)c1cccc(CC[C@](N)(C(=O)O)C2C[C@@H]2C(=O)O)c1 (some centres undefined)"
  quantity.name: "IC50"
  result: 180

----------
assay: Plasma concentration after 2 hr at a dose of 10 mg/kg when administered intraperitoneally; details: ip

- smiles.representation: "N[C@](CC1c2ccccc2Oc2ccccc21)(C(=O)O)[C@H]1C[C@@H]1C(=O)O"
  concentration at 2 h (ng/mL): 1120

----------
experiment: Brain concentration after 4 hr at a dose of 10 mg/kg when administered intraperitoneally; settings: ip
quantity.name: concentration at 4 h (ng/g)

- smiles.representation: "N[C@](CC1c2ccccc2Oc2ccccc21)(C(=O)O)[C@H]1C[C@@H]1C(=O)O"
  value.unit: "ng/g"
  result: 149

----------
The entries below come with measured IC50 values attached.
assay: Binding affinity for Group II Metabotropic glutamate receptor was measured using [3H]glutamate in rat forebrain membranes; type: cell membranes, Membrane

- compound: "Cc1cccc(CC[C@](N)(C(=O)O)C2C[C@@H]2C(=O)O)c1 (stereo in doubt; 104)"
  IC50 (nM): 89
- compound: "N[C@@](CCc1ccc(C(=O)O)cc1)(C(=O)O)C1C[C@@H]1C(=O)O (stereo partly drawn)"
  IC50 (nM): 370
- compound: "NC(CCc1ccccc1)(C(=O)O)[C@H]1C[C@@H]1C(=O)O (stereo partly drawn)"
  IC50 (nM): 320

----------
assay: Half-life in rat plasma when administered intraperitoneally at a dose of 10 mg/kg; type: ADME, organism-based; design: dose 10 mg/kg, route intraperitoneal; settings: ip
quantity.name: half-life (min)

- smiles.representation: "N[C@](CC1c2ccccc2Oc2ccccc21)(C(=O)O)[C@H]1C[C@@H]1C(=O)O"
  value.unit: "min"
  result: 26.4
